- TGT: T1, recombinant human IL-27 (human, UniProt Q14213 21-229; Q8NEV9 29-243)
- T1 construct: Bought from R&D Systems (Cat. 2526-IL); also called hIL-27; rhIL-27
- T1 sequence 1: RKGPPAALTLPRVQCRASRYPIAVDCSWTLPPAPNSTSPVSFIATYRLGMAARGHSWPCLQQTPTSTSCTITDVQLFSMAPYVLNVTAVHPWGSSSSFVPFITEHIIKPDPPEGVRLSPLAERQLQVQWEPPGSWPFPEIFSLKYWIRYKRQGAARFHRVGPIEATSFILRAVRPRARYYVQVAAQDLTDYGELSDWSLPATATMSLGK
- T1 sequence 2: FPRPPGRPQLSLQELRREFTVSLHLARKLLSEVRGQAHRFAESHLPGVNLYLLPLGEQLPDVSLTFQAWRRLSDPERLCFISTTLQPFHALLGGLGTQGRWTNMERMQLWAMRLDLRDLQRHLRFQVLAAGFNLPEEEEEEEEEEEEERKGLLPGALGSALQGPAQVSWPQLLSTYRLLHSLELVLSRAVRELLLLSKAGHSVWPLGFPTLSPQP
- ASSAY REMARKS: SPR, hIL-27 on CM5 chip, bivalent analyte model (kd1)
OBSERVED PROPERTY: koff
Give the value; after it, write the unit.

INSERT INTO results (binder, observed_property, result) VALUES
  ('Ab7.12 (antibody, human IgG1, kappa, V domains shown, human IgG1/kappa) VH: EVKLVESGGGLVQPGGSLRLSCAASGFTFTSYSMSWVRQAPGKGLEWVAYISYDGGSAYYPDTVKGRFTISRDNSKKTLYLQMNSLRAEDTAVYYCARHGDYDDDDAMDYWGQGTLVTVSS VL: DIQMTQSPSSLSASVGDRVTITCRASENIYSYLAWYQQKQGKAPKLLVYNAETLTEGVPSRFSGSGSGTDFTLTISSLQPEDFANYYCQHHYGTPLTFGQGTKLDIKR', 'koff', '0.0026 s⁻¹'),
  ('Ab7.21 (antibody, human IgG1, kappa, V domains shown, human IgG1/kappa) VH: EVQLVESGGGLVQPGGSLRLSCAASGFTFTSYSMSWVRQAPGKGLEWVSYISYDGGSAYYPDTVKGRFTISRDNSKNTLYLQMNSLRAEDTAVYYCARHGDYDDDDAMDYWGQGTLVTVSS VL: DIQMTQSPSSLSASVGDRVTITCRASENIYSYLAWYQQKPGKAPKLLVYNAETLTEGVPSRFSGSGSGTDFTLTISSLQPEDFANYYCQHHYGTPLTFGQGTKLEIKR', 'koff', '0.0027 s⁻¹');

Q: I have this binder here, Ab7.2 (antibody, human IgG1, kappa, V domains shown, human IgG1/kappa) VH: EVKLVESGGGLVQPGGSLKLFCAASGFTFTSYSMSWVRQTPEKRLEWVAYISYDGGSAYYPDTVKGRFSISRDNAKKTLYLQMSSLKSEDTAMYYCARHGDYDDDDAMDYWGQGTSVTVSS VL: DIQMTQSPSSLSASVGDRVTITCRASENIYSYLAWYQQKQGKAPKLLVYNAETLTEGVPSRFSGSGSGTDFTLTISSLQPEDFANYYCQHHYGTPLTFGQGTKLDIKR , and I need its recorded koff.
Result: 0.0027 s⁻¹
